targetEntity: gestagen receptor (Oryctolagus cuniculus, UniProt P06186)
Construct: using cytosol from rabbit uterus homogenate; from tissue; host or cells: rabbit uterus cytosol
Sequence (P06186 whole entry): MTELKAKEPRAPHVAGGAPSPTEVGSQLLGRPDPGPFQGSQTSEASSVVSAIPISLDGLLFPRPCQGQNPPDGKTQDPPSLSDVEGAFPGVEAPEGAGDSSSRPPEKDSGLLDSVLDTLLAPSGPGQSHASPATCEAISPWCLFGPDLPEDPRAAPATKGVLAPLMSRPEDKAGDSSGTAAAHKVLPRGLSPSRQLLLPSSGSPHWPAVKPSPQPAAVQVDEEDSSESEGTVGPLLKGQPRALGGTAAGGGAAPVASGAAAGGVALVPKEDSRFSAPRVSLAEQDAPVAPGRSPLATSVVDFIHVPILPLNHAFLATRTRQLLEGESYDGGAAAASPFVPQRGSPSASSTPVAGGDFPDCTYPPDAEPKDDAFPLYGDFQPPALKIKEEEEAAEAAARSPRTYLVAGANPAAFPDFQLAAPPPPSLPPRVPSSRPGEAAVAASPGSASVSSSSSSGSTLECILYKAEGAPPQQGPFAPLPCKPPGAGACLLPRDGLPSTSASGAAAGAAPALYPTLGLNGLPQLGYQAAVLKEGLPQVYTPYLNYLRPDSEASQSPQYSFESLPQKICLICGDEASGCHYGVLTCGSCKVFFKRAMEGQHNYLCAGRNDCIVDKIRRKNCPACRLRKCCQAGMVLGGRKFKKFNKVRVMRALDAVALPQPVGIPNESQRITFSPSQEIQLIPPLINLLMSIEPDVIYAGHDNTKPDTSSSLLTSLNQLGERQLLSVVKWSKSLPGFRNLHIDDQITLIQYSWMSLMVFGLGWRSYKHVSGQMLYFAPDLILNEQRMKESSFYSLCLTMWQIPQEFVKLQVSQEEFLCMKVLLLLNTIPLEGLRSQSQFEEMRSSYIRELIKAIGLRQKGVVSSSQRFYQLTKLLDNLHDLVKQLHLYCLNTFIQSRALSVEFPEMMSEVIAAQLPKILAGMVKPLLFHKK
assayMethodText: gestagen receptor bonding test (cytosol from rabbit uterus homogenate, 3H-progesterone as reference substance)
Format: binding
Kindly supply the reported Competition Factor (Reference Substance 3H-Progesterone) values for the records listed here.
Please respond with just the number, no unit label.

I would be grateful if you could share the reported Competition Factor (Reference Substance 3H-Progesterone) for CC(C)(CC(O)(CNc1ccc2c(c1)COC2=O)C(F)(F)F)c1ccccc1 (racemic) .
0.17

Report Competition Factor (Reference Substance 3H-Progesterone) for CC(CC(O)(C(=O)Nc1ccc([N+](=O)[O-])c(C(F)(F)F)c1)C(F)(F)F)c1ccccc1 (stereo not shown) [(*) (Melting point 141-142° C.), reference compound] please.
17

I'd like to know its Competition Factor (Reference Substance 3H-Progesterone). The compound in question is CC(CC(O)(C(=O)Nc1ccc([N+](=O)[O-])c(C(F)(F)F)c1)C(F)(F)F)c1ccccc1 (stereo not shown) [(*) (Melting point 161° C.), reference compound]
2.0

Return reported Competition Factor (Reference Substance 3H-Progesterone); argument: Cc1noc(=O)c2ccc(NC(=O)C(O)(CC(C)(C)c3ccccc3)C(F)(F)F)cc12 (stereo not shown)
0.55

====

endpoint: melting point (°C)
Numbers only; they are read as °C.

May I ask what melting point has been recorded for Cc1noc(=O)c2ccc(NC(=O)C(O)(CC(C)(C)c3ccccc3)C(F)(F)F)cc12 (stereo not drawn) [Example 106] ?
123

Any idea what its melting point is? The molecule is CC(C)(CC(O)(C(=O)Nc1ccc2c(c1)COC2=O)C(F)(F)F)c1cccs1 (single isomer, unassigned; (+)) [Example 103 (+)-2-thienyl]
166

Consider the molecule shown here: CC(C)(CC(O)(CNc1ccc2c(c1)COC2=O)C(F)(F)F)c1ccccc1 (racemic) What is its recorded melting point?
154

====

endpoint: melting point

What measured melting point goes with Cc1noc(=O)c2ccc(NC(=O)C(O)(CC(C)(C)c3ccccc3)C(F)(F)F)cc12 (stereo not drawn) [Example 42] ?
172 to 173 °C

Param item = CC(C)Oc1ccc(F)cc1C(C)(C)CC(O)(C(=O)Nc1ccc2c(c1)COC2=O)C(F)(F)F (racemic) ; retrieve measured melting point.
153 to 154 °C

Which melting point value is on record for COc1cccc(C(C)(C)CC(O)(C(=O)Nc2ccc3c(c2)COC3=O)C(F)(F)F)c1 (stereo not drawn) ?
129 to 130 °C
